Assignment: determine reported Intrinsic activity for the given compounds.
Target: Melanocortin receptor 4 (Homo sapiens, UniProt P32245)
Sequence (P32245 whole entry): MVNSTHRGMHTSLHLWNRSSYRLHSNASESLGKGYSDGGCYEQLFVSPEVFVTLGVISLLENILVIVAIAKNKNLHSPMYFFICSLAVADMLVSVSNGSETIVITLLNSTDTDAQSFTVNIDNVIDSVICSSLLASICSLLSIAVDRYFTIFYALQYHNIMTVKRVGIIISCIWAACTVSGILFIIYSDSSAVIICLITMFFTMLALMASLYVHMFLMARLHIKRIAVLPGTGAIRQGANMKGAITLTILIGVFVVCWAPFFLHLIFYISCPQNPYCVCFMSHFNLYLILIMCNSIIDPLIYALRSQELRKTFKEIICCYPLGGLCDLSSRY
Assay: Intrinsic activity at human MC4 receptor expressed in CHO cells assessed as cAMP accumulation relative to alpha-MSH
Assay type: functional, cell-based
One number for each entry, in %.

Some solved cases for reference:
COMPOUND | ASSAYED SYSTEM | Intrinsic activity, %
Cc1ccc(N2CCN(C(=O)C3CN(C4CCOCC4)CC3c3ccc(Cl)cc3)CC2)c([C@@H](N)C(C)C)c1 (stereo not given in full) | Melanocortin receptor 4 (Homo sapiens, UniProt P32245) | 36
CC(C)C[C@H](N)c1cc(C(F)(F)F)ccc1N1CCN(C(=O)[C@@H]2CN(Cc3ccccc3)C[C@H]2c2ccc(Cl)cc2)CC1 | Melanocortin receptor 4 (Homo sapiens, UniProt P32245) | 52
Cc1ccc(N2CCN(C(=O)[C@H]3CN(C4CCOCC4)C[C@@H]3c3ccc(Cl)cc3)CC2)c([C@@H](N)C(C)C)c1 | Melanocortin receptor 4 (Homo sapiens, UniProt P32245) | 18
CC(C)C[C@H](N)c1cc(C(F)(F)F)ccc1N1CCN(C(=O)[C@@H]2CNC[C@H]2c2ccc(Cl)cc2)CC1 | Melanocortin receptor 4 (Homo sapiens, UniProt P32245) | 34

Kindly consider the entry below.
Challenge: I'd like to know its Intrinsic activity. The compound in question is COCC(COC)N1C[C@@H](C(=O)N2CCN(c3ccc(C)cc3[C@@H](N)C(C)C)CC2)[C@H](c2ccc(Cl)cc2)C1
Response given: 27
